Test system: Mus musculus
Experiment: Biodistribution in tumor of C57BL/6J mouse bearing mouse B16F0 cells at 0.37 to 1.85 MBq, iv after 1 hr by gamma counting method
Format: ADME, organism-based
Settings: in vivo
MEASURE NAME: Drug uptake (% ID/g)

# SMILES STRING, Drug uptake (% ID/g)
records = [
    ("O=C(c1ccc2c(n1)NCCC2)N1CCN(Cc2ccc([123I])cc2)CC1", 19.2),
]

1: O=C(CN1Cc2ccccc2C1=O)N1C[C@H]2CN(Cc3ccc([123I])cc3)C[C@H]2C1
2: O=C(c1ccc2cccnc2n1)N1CCN(Cc2ccc([123I])cc2)CC1
3: O=C(CN1Cc2ccccc2C1=O)NC1CCN(Cc2ccc([123I])cc2)CC1
Asked: Number of compounds to sort: 3. Sort criterion: Drug uptake, ascending. Arrange the labels as the request states and list them.
Given back: 3, 1, 2
(3: 6.2 % ID/g, 1: 10.3 % ID/g, 2: 17.1 % ID/g)
